TARGET_DESC: lysozyme (Gallus gallus)
Sequence (P00698 19-147): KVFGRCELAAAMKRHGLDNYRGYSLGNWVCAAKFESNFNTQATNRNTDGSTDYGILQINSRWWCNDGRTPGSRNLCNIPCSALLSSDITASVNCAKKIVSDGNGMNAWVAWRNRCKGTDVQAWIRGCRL
ASSAY: Relative inhibition of lysozyme (lysis of Micrococcus lysodeikticus, absorbance at 450 nm)
Type: biochemical
EXPERIMENTAL_CONTEXT: Micrococcus lysodeikticus substrate, phosphate buffer pH 6.2, 20° C; read-out: I50
ENDPOINT_NAME: IC50 (mM)
Kindly answer with a numeric value in mM, unit omitted.

Incoming: IC50 for C=CC(=O)OCC1OC(O)C(NC(C)=O)C(O)C1O (stereo not shown) ?
Outgoing: 14.8
